What pEC50 was measured for each of the following?
# Test system: MCF7
# ASSAY_OVERVIEW: Phototoxicity against human MCF7 cells assessed as reduction in cell viability preincubated for 30 mins followed by 1.25 J/cm2 UV light irradiation measured after 48 hrs by MTT assay
# Type: functional, cell-based
# RUN_PARAMETERS: MCF7, light or radiation study
Give bare numbers, as −log10 of the molar value.

Some solved cases for reference:
| SMILES_STRING | OBS_VALUE |
| --- | --- |
| Cn1ccc2c1-c1[nH]c(=O)c(S(=O)(=O)c3ccccc3)cc1CCC2 | 5.53 |
| COc1nc2c(cc1S(=O)(=O)c1ccccc1)CCCc1ccn(C)c1-2 | 5.67 |
| CCOC(=O)c1cc2c(n1Cc1ccc(OC)cc1)-c1nc(OC)c(S(=O)(=O)c3ccccc3)cc1CCC2 | 6.00 |

Dear reader, for each entry below, please note its pEC50.
1. COc1ccccc1Cn1ccc2c1-c1[nH]c(=O)c(S(=O)(=O)c3ccccc3)cc1CCC2
2. CCOC(=O)c1cc2c(n1C)-c1c(cc(S(=O)(=O)c3ccccc3)c(=O)n1C)CCC2
3. CCOC(=O)c1cc2c(n1C)-c1[nH]c(=O)c(S(=O)(=O)c3ccccc3)cc1CCC2
4. CCOC(=O)c1cc2c(n1Cc1cccc(OC)c1)-c1[nH]c(=O)c(S(=O)(=O)c3ccccc3)cc1CCC2
5. COc1ccc(Cn2ccc3c2-c2[nH]c(=O)c(S(=O)(=O)c4ccccc4)cc2CCC3)cc1
6. COc1ccc(Cn2ccc3c2-c2nc(OC)c(S(=O)(=O)c4ccccc4)cc2CCC3)cc1
7. COc1cccc(Cn2ccc3c2-c2[nH]c(=O)c(S(=O)(=O)c4ccccc4)cc2CCC3)c1

Found:
6.03
5.32
6.00
5.59
5.37
5.32
5.73

State recorded pEC50 for all listed compounds.
1. O=c1[nH]c2c(cc1S(=O)(=O)c1ccccc1)CCCc1ccn(Cc3ccccc3)c1-2
2. CCOC(=O)c1cc2c(n1Cc1ccc(OC)cc1)-c1[nH]c(=O)c(S(=O)(=O)c3ccccc3)cc1CCC2
3. CCOC(=O)c1cc2c(n1Cc1ccccc1OC)-c1[nH]c(=O)c(S(=O)(=O)c3ccccc3)cc1CCC2
4. CCOC(=O)c1cc2c(n1Cc1ccccc1)-c1[nH]c(=O)c(S(=O)(=O)c3ccccc3)cc1CCC2

Found:
[5.57, 6.15, 6.03, 5.85]

Lookup: Returns the measured pEC50 for the input compound. Input: CCOC(=O)c1cc2c(n1C)-c1nc(OC)c(S(=O)(=O)c3ccccc3)cc1CCC2
Found: 5.77

====

# Tested on: K562
# ASSAY_OVERVIEW: Phototoxicity against human K562 cells assessed as reduction in cell viability preincubated for 30 mins followed by 1.25 J/cm2 UV light irradiation measured after 48 hrs by MTT assay
# Type: functional, cell-based
# RUN_PARAMETERS: K562, light or radiation study
MEASURED_PARAMETER: EC50 (µM)
One number for each entry, in µM.

| SMILES_STRING | TARGET_UNDER_TEST | EC50, µM |
| --- | --- | --- |
| COc1ccc(Cn2ccc3c2-c2[nH]c(=O)c(S(=O)(=O)c4ccccc4)cc2CCC3)cc1 | K562 | 2.54 |
| COc1ccc(Cn2ccc3c2-c2nc(OC)c(S(=O)(=O)c4ccccc4)cc2CCC3)cc1 | K562 | 5.67 |
| CCOC(=O)c1cc2c(n1Cc1ccccc1)-c1[nH]c(=O)c(S(=O)(=O)c3ccccc3)cc1CCC2 | K562 | 0.4 |
| CCOC(=O)c1cc2c(n1Cc1ccc(OC)cc1)-c1nc(OC)c(S(=O)(=O)c3ccccc3)cc1CCC2 | K562 | 0.95 |
| COc1nc2c(cc1S(=O)(=O)c1ccccc1)CCCc1ccn(C)c1-2 | K562 | 5.76 |

Lookup: I have this compound here, COc1ccccc1Cn1ccc2c1-c1[nH]c(=O)c(S(=O)(=O)c3ccccc3)cc1CCC2 , and I need its recorded EC50.
Found: 7.68

====

Please provide measured EC50 for the entries that follow.
# Test system: K562
# ASSAY_OVERVIEW: Phototoxicity against human K562 cells assessed as reduction in cell viability preincubated for 30 mins followed by 1.25 J/cm2 UV light irradiation measured after 48 hrs by MTT assay
# Type: functional, cell-based
# RUN_PARAMETERS: K562, light or radiation study
Answers are plain numbers, in nM.

| SMILES_STRING | TARGET_UNDER_TEST | MEASURED_PARAMETER | OBS_VALUE |
| --- | --- | --- | --- |
| CCOC(=O)c1cc2c(n1C)-c1nc(OC)c(S(=O)(=O)c3ccccc3)cc1CCC2 | K562 | EC50 | 630 |
| O=c1[nH]c2c(cc1S(=O)(=O)c1ccccc1)CCCc1ccn(Cc3ccccc3)c1-2 | K562 | EC50 | 8500 |
| CCOC(=O)c1cc2c(n1Cc1cccc(OC)c1)-c1[nH]c(=O)c(S(=O)(=O)c3ccccc3)cc1CCC2 | K562 | EC50 | 470 |
| CCOC(=O)c1cc2c(n1C)-c1c(cc(S(=O)(=O)c3ccccc3)c(=O)n1C)CCC2 | K562 | EC50 | 3530 |
| CCOC(=O)c1cc2c(n1C)-c1[nH]c(=O)c(S(=O)(=O)c3ccccc3)cc1CCC2 | K562 | EC50 | 10700 |
| CCOC(=O)c1cc2c(n1Cc1ccccc1OC)-c1[nH]c(=O)c(S(=O)(=O)c3ccccc3)cc1CCC2 | K562 | EC50 | 270 |

Next:
Lookup: For the compound shown here, CCOC(=O)c1cc2c(n1Cc1ccc(OC)cc1)-c1[nH]c(=O)c(S(=O)(=O)c3ccccc3)cc1CCC2 , give the reported EC50.
Found: 280

====

# Test system: K562
# ASSAY_OVERVIEW: Phototoxicity against human K562 cells assessed as reduction in cell viability preincubated for 30 mins followed by 1.25 J/cm2 UV light irradiation measured after 48 hrs by MTT assay
# Type: functional, cell-based
# RUN_PARAMETERS: K562, light or radiation study
MEASURED_PARAMETER: EC50

Consider the following illustrative entries.
| SMILES_STRING | EC50 |
| --- | --- |
| Cn1ccc2c1-c1c(cc(S(=O)(=O)c3ccccc3)c(=O)n1C)CCC2 | > 20 µM |
| Cn1ccc2c1-c1[nH]c(=O)c(S(=O)(=O)c3ccccc3)cc1CCC2 | > 20 µM |

Lookup: Name the reported EC50 value associated with the compound COc1cccc(Cn2ccc3c2-c2[nH]c(=O)c(S(=O)(=O)c4ccccc4)cc2CCC3)c1
Found: > 20 µM
